Values were extracted from ChEMBL document CHEMBL1828501.

test system: 769-P; assay: Cytotoxicity against human 769-P cells by MTT assay; assay type: functional, cell-based

{"smiles code": "CCN(CC)CCCCNCc1nccc2c3ccccc3n(CCCc3ccccc3)c12", "comparison operator": "=", "IC50 / µM": 12.4}
{"smiles code": "CCN(CC)CCCNCc1nccc2c3ccccc3n(Cc3ccc(F)cc3)c12", "comparison operator": "=", "IC50 / µM": 19.6}
{"smiles code": "CCN(CC)CCNCc1nccc2c3ccccc3n(CCCc3ccccc3)c12", "comparison operator": "=", "IC50 / µM": 14.8}
{"smiles code": "CC(C)Cn1c2ccccc2c2ccnc(CNCCCN(C)C)c21", "comparison operator": ">", "IC50 / µM": 100}
{"smiles code": "CCN(CC)CCNCc1nccc2c3ccccc3n(Cc3ccccc3)c12", "comparison operator": "=", "IC50 / µM": 34.9}
{"smiles code": "CCCCn1c2ccccc2c2ccnc(CNCCCN(CC)CC)c21", "comparison operator": "=", "IC50 / µM": 14.9}
{"smiles code": "CN(C)CCCNCc1nccc2c3ccccc3n(Cc3ccc(F)cc3)c12", "comparison operator": "=", "IC50 / µM": 11.7}
{"smiles code": "CCN(CC)CCCCNCc1nccc2c3ccccc3n(Cc3cccc(Cl)c3)c12", "comparison operator": "=", "IC50 / µM": 28.5}
{"smiles code": "CCN(CC)CCCNCc1nccc2c3ccccc3n(Cc3cccc(Cl)c3)c12", "comparison operator": "=", "IC50 / µM": 11.4}
{"smiles code": "CN(C)CCCNCc1nccc2c3ccccc3n(CCCc3ccccc3)c12", "comparison operator": "=", "IC50 / µM": 1.7}
{"smiles code": "CCCCn1c2ccccc2c2ccnc(CNCCCCN(CC)CC)c21", "comparison operator": "=", "IC50 / µM": 69.2}
{"smiles code": "CCN(CC)CCCCNCc1nccc2c3ccccc3n(Cc3ccc(F)cc3)c12", "comparison operator": "=", "IC50 / µM": 13.3}
{"smiles code": "CCCCn1c2ccccc2c2ccnc(CNCCN(CC)CC)c21", "comparison operator": "=", "IC50 / µM": 43.7}
{"smiles code": "CCN(CC)CCCCNCc1nccc2c3ccccc3n(Cc3ccccc3)c12", "comparison operator": "=", "IC50 / µM": 71.7}
{"smiles code": "CN(C)CCCNCc1nccc2c3ccccc3n(Cc3cccc(Cl)c3)c12", "comparison operator": "=", "IC50 / µM": 24.5}
{"smiles code": "CCN(CC)CCCNCc1nccc2c3ccccc3n(Cc3ccccc3)c12", "comparison operator": "=", "IC50 / µM": 19.2}
{"smiles code": "CCN(CC)CCNCc1nccc2c3ccccc3n(Cc3ccc(F)cc3)c12", "comparison operator": "=", "IC50 / µM": 23.9}
{"smiles code": "CCN(CC)CCNCc1nccc2c3ccccc3n(CC(C)C)c12", "comparison operator": "=", "IC50 / µM": 25.4}
{"smiles code": "CCN(CC)CCCNCc1nccc2c3ccccc3n(CCCc3ccccc3)c12", "comparison operator": "=", "IC50 / µM": 2.4}
{"smiles code": "CCN(CC)CCCNCc1nccc2c3ccccc3n(CC(C)C)c12", "comparison operator": ">", "IC50 / µM": 100}
{"smiles code": "CN(C)CCCNCc1nccc2c3ccccc3n(Cc3ccccc3)c12", "comparison operator": "=", "IC50 / µM": 15.1}
{"smiles code": "CCCCn1c2ccccc2c2ccnc(CNCCCN(C)C)c21", "comparison operator": "=", "IC50 / µM": 75.6}
{"smiles code": "CCN(CC)CCNCc1nccc2c3ccccc3n(Cc3cccc(Cl)c3)c12", "comparison operator": "=", "IC50 / µM": 26.7}
{"smiles code": "CCN(CC)CCCCNCc1nccc2c3ccccc3n(CC(C)C)c12", "comparison operator": ">", "IC50 / µM": 100}
